- Tested on: NCI-H526 cells
- test_summary: In vitro cell inhibition assay - NCI-H526 cell proliferation (CellTiter-Glo)
- Type: cell-based
- condition_summary: Homo sapiens, NCI-H526, 120 h, H526 small cell lung cancer cell proliferation, 5 days
Counter-ions that a name gives are not always drawn.
quantity: pIC50
The value called pIC50 is obtained by taking minus log10 of the concentration in mol/L.

compound	system	quantity	observed_measurement
CC(C)(O)COc1ccc(-c2cnc(N3CCC(NCc4ccc(OCC(=O)NO)cc4)CC3)c(C#N)c2-c2ccc(C#N)c(F)c2)cc1O [Example 192, formate]	NCI-H526 cells	pIC50	7.09
COc1ccc(-c2cnc(N3CCC(NCCc4ccc(/C=C/C(=O)NO)cc4)CC3)c(C#N)c2-c2ccc(C#N)c(F)c2)cc1O [Example 45, hydrochloride]	NCI-H526 cells	pIC50	6.54

Recorded pIC50 of COc1cc(F)c(-c2cnc(N3CCC(NCc4ccc(/C=C/C(=O)NO)cc4)CC3)c(OC)c2-c2ccc(C#N)nc2)cc1O [Example 265, formate] , please. 8.23

Fill in the blank: the reported pIC50 of COc1ccc(-c2cnc(N3CCC(NCc4ccc(/C=C/C(=O)NO)cc4F)CC3)c(OC)c2-c2ccc(C#N)nc2)cc1O [Example 264, formate] is ____. 8.29

Entry N#Cc1ccc(-c2c(-c3ccc(Br)c(O)c3)cnc(N3CCC(NCc4ccc(/C=C/C(=O)NO)cc4)CC3)c2C#N)cc1F [Example 127, formate] : reported pIC50 = ? 7.81

So what does the record say about pIC50 for COc1ccc(-c2cnc(N3CCC(NCc4ccc(/C=C/C(=O)NO)cc4)CC3)c(C)c2-c2ccc(C#N)c(F)c2)cc1O [Example 144, hydrochloride] ? 8.08

Name the reported pIC50 value associated with the compound `COc1ccc(-c2ccc(N3CCC(NCc4ccc(/C=C/C(=O)NO)cc4)CC3)c(C#N)c2-c2ccc(C#N)c(F)c2)cc1O` 7.16

Would you kindly share the measured pIC50 for COc1ccc(-c2cnc(N3CCN(CCc4ccc(/C=C/C(=O)NO)cc4)CC3)c(C#N)c2-c2ccc(C#N)c(F)c2)cc1O [Example 49, hydrochloride] ? 6.48

Value lookup for pIC50; key = `COc1ccc(-c2cnc(N3CCC(NCc4ccc(/C=C/C(=O)NO)cc4)CC3)c(OC)c2-c2ccc(C#N)c(F)c2)cc1O` 7.97

====

- system: HDAC8 (Homo sapiens (Human))
- Sequence (Q9BY41 whole entry): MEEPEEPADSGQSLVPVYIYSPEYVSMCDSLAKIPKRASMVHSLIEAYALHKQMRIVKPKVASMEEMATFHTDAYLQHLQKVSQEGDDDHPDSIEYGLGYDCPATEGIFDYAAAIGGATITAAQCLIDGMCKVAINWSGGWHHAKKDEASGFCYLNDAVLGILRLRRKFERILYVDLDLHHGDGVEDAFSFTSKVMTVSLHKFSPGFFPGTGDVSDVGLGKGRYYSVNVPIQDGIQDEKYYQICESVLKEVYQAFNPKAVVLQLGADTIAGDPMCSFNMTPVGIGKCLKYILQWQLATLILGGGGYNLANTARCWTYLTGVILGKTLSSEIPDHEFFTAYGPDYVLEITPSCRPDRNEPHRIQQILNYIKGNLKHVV
- test_summary: In vitro enzyme inhibition assay - HDAC (HDAC-Glo I/II), HDAC8
- Assay type: biochemical
- condition_summary: read-out: HDAC IC50 (nM) HDAC 8
Counter-ions that a name gives are not always drawn.
// classify: if (IC50 < 90 nM) true else false

Before answering, review these 3 worked examples.
molecule	system	category
N#Cc1ccc(-c2c(-c3ccc(OCCc4ccc(/C=C/C(=O)NO)cc4)c(O)c3)cnc(N3CCC(N)CC3)c2C#N)cc1F [Example 231, hydrochloride]	HDAC8 (Homo sapiens (Human))	false
COc1ccc(-c2cnc(N3CCC(NCCCc4ncc(C(=O)NO)s4)CC3)c(C#N)c2-c2ccc(C#N)c(F)c2)cc1O	HDAC8 (Homo sapiens (Human))	true
N#Cc1ccc(-c2c(-c3ccc4c(c3)OCO4)cnc(N3CCC(NCc4ccc(/C=C/C(=O)NO)cc4)CC3)c2C#N)cc1F [Example 103, formate]	HDAC8 (Homo sapiens (Human))	false

Please state whether IC50 is below 90 nM for COc1ccc(-c2cnc(N3CCC(NCc4ccc(/C=C/C(=O)NO)cc4)CC3)c(C#N)c2-c2ccc(C#N)c(F)c2)cc1F [Example 40, hydrochloride] false

State whether 90 nM exceeds IC50 recorded for COc1ccc(-c2c(OCc3ccc(/C=C/C(=O)NO)cc3)cc(N3CCC(N)CC3)nc2-c2ccc(C#N)c(F)c2)cc1O [Example 2, hydrochloride] . false

====

- system: pan-HDAC
- test_summary: In vitro enzyme inhibition assay - HDAC (HDAC-Glo I/II), pan-HDAC
- Format: biochemical
Counter-ions that a name gives are not always drawn.
Mark y only when IC50 stays strictly below 20 nM. Values equal to the cut-off are n.

compound	category
COc1ccc(-c2cnc(N3CCC(NCc4ccc(/C=C/C(=O)NO)cc4)CC3)c(C#N)c2-c2ccc(C#N)c(F)c2)cc1F [Example 40, hydrochloride]	n

hey, is IC50 for `CC(C)(O)COc1ccc(-c2cnc(N3CCC(NCc4ccc(/C=C/C(=O)NO)nc4)CC3)c(C#N)c2-c2ccc(C#N)c(F)c2)cc1O` lower than 20 nM or not? y

hey, is IC50 for COc1cc(-c2cnc(N3CCC(N(C)Cc4ccc(/C=C/C(=O)NO)cc4)CC3)c(C#N)c2-c2ccc(C#N)c(F)c2)ccc1O [Example 99, formate] lower than 20 nM or not? n

Bench note: check whether COc1ccc(-c2cnc(N3CCC(NCc4ccc(CC(F)C(=O)NO)cc4)CC3)c(C#N)c2-c2ccc(C#N)c(F)c2)cc1O (stereo not drawn) shows IC50 below 20 nM y

Does `COc1ccc(-c2ccc(CN3CC[C@H](NCc4ccc(/C=C/C(=O)NO)cc4)C3)cc2-c2ccc(C#N)c(F)c2)cc1O` have IC50 strictly under 20 nM? n

Does the reported IC50 of Cc1ccc(-c2c(-c3ccc(C#N)c(F)c3)nc(N3CCC(NC(=O)CCCCCCC(=O)NO)CC3)n3ccnc23)cc1O [Example 56, hydrochloride] stay below 20 nM? n

Take the compound COc1ccc(-c2cnc(N3CCC(NCc4ccc(/C=C/C(=O)NO)cc4F)CC3)c(C#N)c2-c2ccc(C#N)c(F)c2)cc1O [Example 154, hydrochloride] and say whether its IC50 is less than 20 nM. y

====

- system: pan-HDAC
- test_summary: In vitro enzyme inhibition assay - HDAC (HDAC-Glo I/II), pan-HDAC
- Assay type: biochemical
Where a name gives a salt, the structure may show the parent alone.
quantity: IC50 (nM)
The reply should contain only the number, in nM.

molecule	system	IC50 [nM]
COc1cc(-c2cnc(N3CCC(NCc4ccc(/C=C/C(=O)NO)cc4)CC3)c(C#N)c2-c2ccc(C#N)c(F)c2)ccc1O [Example 100, hydrochloride]	pan-HDAC	35.5

If you can, please state the reported IC50 value of N#Cc1ccc(-c2nc(N3CC4CC3CC4N)n3ccnc3c2-c2ccc(OCCCCCCC(=O)NO)c(O)c2)cc1F (stereo not drawn) [Example 22, hydrochloride] . 144

IC50 lookup needed for `COc1ccc(-c2cnc(N3CCC(NCc4ccc(/C=C/C(=O)NO)cc4)CC3)c(C#N)c2-c2ccc(C#N)nc2)cc1O` , thanks. 1.13

What value of measured IC50 is listed for COc1ccc(-c2cnc(N3CCC(NCc4ccc(/C=C/C(=O)NO)s4)CC3)c(C#N)c2-c2ccc(C#N)c(F)c2)cc1O [Example 105, formate] ? 114

Need IC50 of COc1cc(F)c(-c2cnc(N3CCC(NCc4ccc(/C=C/C(=O)NO)cc4)CC3)c(C#N)c2-c2ccc(C#N)nc2)cc1O [Example 255, formate] , thanks. 0.68

Form field: reported IC50 of N#Cc1ccc(-c2c(-c3ccc(O)c(O)c3)cnc(N3CCC(NCc4ccc(/C=C/C(=O)NO)cc4)CC3)c2C#N)cc1F [Example 137, hydrochloride] 6.04

I'd like to know its IC50. The molecule in question is COc1ccc(-c2c(-c3ccc(C#N)c(F)c3)nc(N3CCC(NCc4ccc(/C=C/C(=O)NO)cc4)CC3)n3ccnc23)cc1O [Example 70, formate] 76.6

Value lookup for IC50; key = `COc1ccc(-c2cnc(N3CCC(NCc4ccc(C#CC(=O)NO)cc4)CC3)c(C#N)c2-c2ccc(C#N)c(F)c2)cc1O` 657

====

List of IC50 values.
- system: HDAC1 (Homo sapiens (Human), UniProt Q13547)
- Sequence (Q13547 whole entry): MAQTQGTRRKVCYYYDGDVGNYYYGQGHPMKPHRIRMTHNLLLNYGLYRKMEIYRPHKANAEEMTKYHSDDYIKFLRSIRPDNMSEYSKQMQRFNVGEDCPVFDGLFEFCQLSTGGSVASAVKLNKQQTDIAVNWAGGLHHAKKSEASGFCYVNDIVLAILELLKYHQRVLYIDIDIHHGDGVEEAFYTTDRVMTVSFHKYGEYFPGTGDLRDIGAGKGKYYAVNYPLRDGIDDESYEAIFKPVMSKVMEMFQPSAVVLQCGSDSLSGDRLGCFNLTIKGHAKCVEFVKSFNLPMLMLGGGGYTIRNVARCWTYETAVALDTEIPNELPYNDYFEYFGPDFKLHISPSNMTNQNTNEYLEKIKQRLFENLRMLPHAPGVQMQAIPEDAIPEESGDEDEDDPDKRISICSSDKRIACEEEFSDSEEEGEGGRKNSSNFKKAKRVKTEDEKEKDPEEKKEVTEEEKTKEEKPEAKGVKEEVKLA
- test_summary: In vitro enzyme inhibition assay - HDAC (HDAC-Glo I/II), HDAC1
- Type: biochemical
- condition_summary: read-out: HDAC IC50 (nM) HDAC 1
- Excerpt: 2. In Vitro Enzyme Inhibition Assay—HDAC The effect of the compound on the enzymatic activity of pan-HDAC and two isoforms (HDAC1 and HDAC8) was examined using the HDAC-Glo I/II Assay and Screening System assay to assess the level of inhibition of HDAC protease activity and selectivity in each isoform. […] The 384-well plate was then read on a multifunctional microplate reader, with the Luminescence channel selected to record Luminescence values (RLU). […]
Structures can show the parent of a compound that is named as a salt.
Answer in nM, number only, no unit symbol.

compound	system	quantity	observed_measurement
Cc1ccc(-c2c(-c3ccc(C#N)c(F)c3)nc(N3CCC(NCCCCCCC(=O)NO)CC3)n3ccnc23)cc1O [Example 34, Hydrochloride]	HDAC1 (Homo sapiens (Human), UniProt Q13547)	IC50	1060
CC(C)(O)COc1ccc(-c2cnc(N3CCC(NCc4cnc(/C=C/C(=O)NO)nc4)CC3)c(C#N)c2-c2ccc(C#N)c(F)c2)cc1O [Example 187, formate]	HDAC1 (Homo sapiens (Human), UniProt Q13547)	IC50	1.98
N#Cc1ccc(-c2c(-c3ccc(Cl)c(O)c3)cnc(N3CCC(NCc4ccc(/C=C/C(=O)NO)cn4)CC3)c2C#N)cn1	HDAC1 (Homo sapiens (Human), UniProt Q13547)	IC50	1.62

Given the entry COc1ccc(-c2cnc(N3CCC(NCc4cnc(/C=C/C(=O)NO)cc4Cl)CC3)c(C#N)c2-c2ccc(C#N)c(F)c2)cc1O [Example 227, formate] , report its measured IC50. 9.71

# query: IC50 of entry Cc1ccc(-c2c(-c3ccc(C#N)c(F)c3)nc(N3CCC(NC(=O)CCCCCCC(=O)NO)CC3)n3ccnc23)cc1O [Example 56, hydrochloride] 642

Recorded IC50 of `N#Cc1ccc(-c2c(-c3ccc4cn[nH]c4c3)cnc(N3CCC(NCc4cnc(/C=C/C(=O)NO)nc4)CC3)c2C#N)cc1F` , please. 1.69

Can you look up the measured IC50 of `CC(C)(O)COc1ccc(-c2cnc(N3CCC(NCc4ccc(/C=C/C(=O)NO)c(C#N)c4)CC3)c(C#N)c2-c2ccc(C#N)c(F)c2)cc1O` for me? 13.4

Query: IC50; subject: Cc1ccc(-c2cnc(N3CCC(NCc4ccc(/C=C/C(=O)NO)cc4)CC3)c(C#N)c2-c2ccc(C#N)c(F)c2)cc1O [Example 102, formate] 16.3

Would you mind telling me what IC50 value was observed for COc1ccc(-c2cnc(N3CCC(NCc4ccc(/C=C/C(=O)NO)cc4)CC3)c(C#N)c2-c2ccc([N+](=O)[O-])nc2)cc1O [Example 248, formate] ? 0.61

IC50 lookup needed for CNC1CCN(c2ncc(-c3ccc(NCc4ccc(C(=O)NO)cc4)c(O)c3)c(-c3ccc(C#N)c(F)c3)c2C#N)CC1 [Example 39, hydrochloride] , thanks. 335

Consider the compound shown here: N#Cc1ccc(-c2c(-c3ccc4cn[nH]c4c3)cnc(N3CCC(NCc4ccc(/C=C/C(=O)NO)nc4)CC3)c2C#N)cc1F [Example 182, formate] What is its recorded IC50? 1.3

Name the reported IC50 value associated with the compound N#Cc1ccc(-c2c(-c3cccc(O)c3)cnc(N3CCC(NCc4ccc(/C=C/C(=O)NO)cc4)CC3)c2C#N)cc1F [Example 139, formate] 0.53
